# testedOn: NAD-dependent protein deacetylase sirtuin-2 (Homo sapiens, UniProt Q8IXJ6)
# Sequence (Q8IXJ6 whole entry): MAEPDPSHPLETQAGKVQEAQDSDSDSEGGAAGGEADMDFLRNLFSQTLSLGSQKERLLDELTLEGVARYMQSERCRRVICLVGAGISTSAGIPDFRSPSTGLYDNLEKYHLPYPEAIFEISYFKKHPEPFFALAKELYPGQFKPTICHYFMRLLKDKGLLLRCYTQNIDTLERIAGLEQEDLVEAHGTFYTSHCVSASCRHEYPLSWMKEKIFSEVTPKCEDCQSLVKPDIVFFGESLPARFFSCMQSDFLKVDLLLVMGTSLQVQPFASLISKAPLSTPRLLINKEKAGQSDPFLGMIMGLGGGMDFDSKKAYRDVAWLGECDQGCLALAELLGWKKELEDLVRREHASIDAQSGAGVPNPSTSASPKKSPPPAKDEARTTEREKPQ
# assay: Inhibition of human recombinant SIRT2 by Flour de Lys assay
pIC50: −log10 of the molar value.

- compound: "CC(NC(=O)c1ccc(/N=C/c2c(O)ccc3ccccc23)cc1)c1ccccc1 (stereo unspecified)"
  testedOn: "NAD-dependent protein deacetylase sirtuin-2 (Homo sapiens, UniProt Q8IXJ6)"
  pIC50: 4.52
- compound: "CC(CSc1cccc(/N=C/c2c(O)ccc3ccccc23)c1)c1ccccc1 (stereo unspecified)"
  testedOn: "NAD-dependent protein deacetylase sirtuin-2 (Homo sapiens, UniProt Q8IXJ6)"
  pIC50: 4.72
- compound: "CC(NS(=O)(=O)c1ccc(/N=C/c2c(O)ccc3ccccc23)cc1)c1ccccc1 (stereo unspecified)"
  testedOn: "NAD-dependent protein deacetylase sirtuin-2 (Homo sapiens, UniProt Q8IXJ6)"
  pIC50: 4.65
- compound: "O=c1nc2oc3ccccc3cc-2c(=O)[nH]1"
  testedOn: "NAD-dependent protein deacetylase sirtuin-2 (Homo sapiens, UniProt Q8IXJ6)"
  pIC50: 3.61
- compound: "CC(NC(=O)c1cccc(/N=C/c2c(O)ccc3ccccc23)c1)c1ccccc1 (stereo unspecified)"
  testedOn: "NAD-dependent protein deacetylase sirtuin-2 (Homo sapiens, UniProt Q8IXJ6)"
  pIC50: 4.46
- compound: "O=C1Oc2ccc3ccccc3c2CC1C(=O)c1ccccc1Cl (stereo unspecified)"
  testedOn: "NAD-dependent protein deacetylase sirtuin-2 (Homo sapiens, UniProt Q8IXJ6)"
  pIC50: 5.03

====

# testedOn: NAD-dependent protein deacetylase sirtuin-1 (Homo sapiens, UniProt Q96EB6)
# Sequence (Q96EB6 whole entry): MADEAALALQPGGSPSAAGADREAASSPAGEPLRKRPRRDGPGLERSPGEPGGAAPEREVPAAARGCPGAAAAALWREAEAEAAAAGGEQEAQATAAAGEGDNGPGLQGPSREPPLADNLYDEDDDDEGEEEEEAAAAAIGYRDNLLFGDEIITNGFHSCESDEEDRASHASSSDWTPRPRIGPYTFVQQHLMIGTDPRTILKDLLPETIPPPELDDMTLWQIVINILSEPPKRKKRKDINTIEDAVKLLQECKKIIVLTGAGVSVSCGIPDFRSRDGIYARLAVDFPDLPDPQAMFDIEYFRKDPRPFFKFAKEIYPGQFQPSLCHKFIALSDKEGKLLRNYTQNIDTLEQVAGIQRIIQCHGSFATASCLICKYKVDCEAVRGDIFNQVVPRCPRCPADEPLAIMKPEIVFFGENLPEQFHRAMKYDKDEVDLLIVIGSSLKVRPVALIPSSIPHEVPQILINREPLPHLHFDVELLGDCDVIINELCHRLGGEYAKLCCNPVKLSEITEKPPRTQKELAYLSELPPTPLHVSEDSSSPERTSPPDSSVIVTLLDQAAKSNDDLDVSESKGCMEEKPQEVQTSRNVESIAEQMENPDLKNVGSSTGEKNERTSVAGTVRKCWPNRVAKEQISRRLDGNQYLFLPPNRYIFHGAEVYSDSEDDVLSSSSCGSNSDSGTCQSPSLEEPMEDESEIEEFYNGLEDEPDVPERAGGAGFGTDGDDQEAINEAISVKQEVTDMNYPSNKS
# assay: Inhibition of human recombinant SIRT1 by Flour de Lys assay

- compound: "CC(NC(=O)c1ccc(/N=C/c2c(O)ccc3ccccc23)cc1)c1ccccc1 (stereo unspecified)"
  testedOn: "NAD-dependent protein deacetylase sirtuin-1 (Homo sapiens, UniProt Q96EB6)"
  unitString: "µM"
  op: "="
  IC50: 48.1
- compound: "CC(CSc1cccc(/N=C/c2c(O)ccc3ccccc23)c1)c1ccccc1 (stereo unspecified)"
  testedOn: "NAD-dependent protein deacetylase sirtuin-1 (Homo sapiens, UniProt Q96EB6)"
  unitString: "µM"
  op: "="
  IC50: 40.3
- compound: "O=c1nc2oc3ccccc3cc-2c(=O)[nH]1"
  testedOn: "NAD-dependent protein deacetylase sirtuin-1 (Homo sapiens, UniProt Q96EB6)"
  unitString: "µM"
  op: "="
  IC50: 5.3
- compound: "N#C/C(=C\\c1ccc(-c2cc(Cl)ccc2Cl)o1)C(=O)Nc1cccc2ncccc12"
  testedOn: "NAD-dependent protein deacetylase sirtuin-1 (Homo sapiens, UniProt Q96EB6)"
  unitString: "µM"
  op: ">"
  IC50: 50
- compound: "CC(NS(=O)(=O)c1ccc(/N=C/c2c(O)ccc3ccccc23)cc1)c1ccccc1 (stereo unspecified)"
  testedOn: "NAD-dependent protein deacetylase sirtuin-1 (Homo sapiens, UniProt Q96EB6)"
  unitString: "µM"
  op: "="
  IC50: 44.1
- compound: "O=C1Oc2ccc3ccccc3c2CC1C(=O)c1ccccc1Cl (stereo unspecified)"
  testedOn: "NAD-dependent protein deacetylase sirtuin-1 (Homo sapiens, UniProt Q96EB6)"
  unitString: "µM"
  op: "="
  IC50: 89.8
